- Assay Info: soluble on expression in E. coli; label from the status in PepcDB or PDB records
Measurement Name: soluble on expression in E. coli

Below are worked cases with known answers.
MKILAIINPISGIGSKSNIPSLIADVFAHDPHELFITYSQRAGHARELAAQAVEKHYDCVIAVGGDGTVNEIAQSLRYTDVVLGIVPKGSGNGLARALKLPLTVGKALEVIRAGHVRTIDCCEADSRPFFCTCGLGFDAEVSKKFAQAGSRGPITYARTMIESYLQNEPKEYKLTIDGKSFEEKAFLVTCANAPQYGNNAYIAPLADLEDGKMDVVIIRPFNPLEAPQLALQLFTKRINSNSNLDTYKAENLIIERETEGVMHLDGDPVMFGKRIEIRTYGRSLKVFATETYT : not soluble
MGSDKIHHHHHHMELKARAVGVEIIPKGKIIYYSVPNGDEYERGDLVLVLGDFGLEVGKVLIPPREVVIDEVGYELKAVIRKLTDEDLEQYRKNVEDALKAFQICKQKIKEHGLPMKLLYAKYTFDRTRLIFFFSAEGRVDFRELVRDLAKIFKTRIELRQVGVRDEMKFFGGLGLCGLPTCCSTFLREFTSVTLKHAKKQQMMINPAKISGPCRRLLCCLTYEYDFYEKELEGIPDEGSTITYEGKRYKVVNVNVFLRTVTLFSEQEGEMIKLPFDYFRKGE : not soluble
MGSDKIHHHHHHAEVPVSDTIQQEAPAKVQITYDDPRDPFEGFNRAMWDFNYLYLDRYLYRPVAHGYNDYIPMPAKTGINNFVQNLEEPSSLVNNVLQGKWGWAANAGGRFTINSTVGLLGVIDVADMMGMSRKQDEFNEVLGYYGVPNGPYFMAPFAGPYVVRELASDWVDGLYFPLSELTMWQTIVKWGLKNLHSRASAIDQERLVDNALDPYAFVKDAYLQHMDYKVYDGNVPQKQDDDELLDQYMQELE : not soluble
MGSDKIHHHHHHAGCEEEASLSARSVVEAGETEREKTELDKWILDTFTRPYGIEVEYRWDKNAVQNGSYIYPPEVANVKSVLNTIKTLWIDLYTAPELGGDKFLLGKNPLKIYMYGGRNVDGNGMELLDNLEATTNEMFLYNVNDFNPQDEDKVFILMRSVHHQFARHLMELFPYDRSKFLSISRNKYIESTKSIAWIFKGETQGRRGFILAGYPNKKGFFTFHSLLSPEKDFAEIISLKLTYGPKDLLQALDRAKTPYNAGSDKDLQKEYDEQALQAYKELVEKQAFVEDYFSKEIKISLNYLQLISMKQVKEFINKK : not soluble

sequence `MGSDKIHHHHHHMKSEDNGESWSDTYFLTHGEKWHSSACNVLFSNGNVYLAMEQRCRLNEVTGWDVAGLSPTLFRACVEDNLCLASSWSRSEKFIYKEVFDGAKLDFFGIPFYDCETNKPKEIATGINNAPLGWLEANVVKFVDKDHIWHTDLKEVFHLFLRAHTGGVNYAHLFKIEIQDDQSMIPSLEHTPSGQKISYIPFPGGHLKFFIIYDELTRFYWLVSNQATDSMRRVSSLSNIKRYGLPNNERHRLQLHFSRNCVDWCFAGMVACSTNELYSRNYPSAVIKGDDLHIVCRSADEHALNPQYNNMITHHIVSNFRQLIY` , soluble on expression in E. coli observed: not soluble

###

- Assay Info: soluble on expression in E. coli; label from the status in PepcDB or PDB records
Measurement Name: soluble on expression in E. coli

Below are worked cases with known answers.
GMSSSGIEIAKPFVTATTNVLSTMAGIQPIPGQPYVKKNNVAKGDVSAVVGITGHKNGSISVTFTKQCAIAVVKAMLGDDIQDIIQDTKDAVGEVTNMISGQARAALSEMGMTFQGATPSVIMGDGHTISHVTKSPVIAIPFKTNHGEFTVEFCLE : soluble
SLDFRDKVRNMDLQAGLYRHYKGQNYRVLGVARHSETEEALVIYQALYGEFGLWVRPLEMFTEAVEVDGEWVPRFVLVSPEADPLGLQKAPGGEDRA : soluble
MGHHHHHHGGHMSLRTEEEMFQLIMDVAKQEEHIRAVGMVGSRTNVKAPKDSFQDFDIVYIVEPCAEFFETATWIAKFGQPLIMQRPKEMTLFPTEPKTRETFLMLFEDGQRIDLTLCPLAEKDNWHEGDSLAIILLDKDENLPPLPVASDKNYTVTVPDQQQFNDCCNEFWWVSTYVVKGLCRNELFYAVTHLYEYCQQELLRLLSWQAAWQEPEPISVGKQFKYLKNYVTPDTMDQLASLLDFSSKEACWNSLIKTQAFFDVVAQDFAKMAQFTYHLQEAKKVTEYTNSLRLKDLQGKEGGS : not soluble
GPGSMAAGNSISVKVDVPSQVKGQGTLEMSYYIYPITMRLPGFMSDARFNRRYTDFETLRGQLCATYWYCIVPPIPEKESVQDKLGKLPRMVASAKETTASEGDLLEYRRISLRRFLQRLAYHPILGKSDLLQKFTNDNEWRQCIRDPVKPPR : not soluble
MGHHHHHHSHMASLAVSNWPKPMPLIPCLSWSTASGVFTTGVLSKPINWRELEKQYYTQTVYEEEIIHMLEYCGTDSFKMGQEFVKHFTSSADKLTNLNLVSRTLNLDISNQVVSQKPADCHNSSKTSVSATSEGLLLQDTSKMKRFNQTLSTNKSGYTSRNPQSYHLLSKEQSRNSLRKESLIFMKGVMDECTHVANFSVPVDPSLIIVVQAKEDAYIPRTGVRSLQEIWPGCEIRYLEGGHISAYLFKQGLFR : soluble
MSTLAPLFLAKHPDGEERQVIRPNVWETSCADTETLSIFHIEGMADPDLLCRVLNLFAVQSFTPERVRADREDHKIRLLLTFPGLSQHRASVIAEKLRSLVTVLAVRLEFSPHAGKVRPSVSEPLLASVV : not soluble

sequence `MLIFKIFRRSEWDDFRRAGATAGAPVDLADGYIHFSTAAQVAETAAKHFTAESDLVLVAIDPDRAGPDLKWEPSRGEQLFPHLYRRLTLDDVVWDKSLPLGATGHIFPEGLWLEHHHHHH` , soluble on expression in E. coli observed: soluble

sequence `MSTPRIVVGVSGGVDSSVAAWKLAQQGEPIAGLFMQNWADDGSGDCRAEDDRRDAVAVCGVLGIPFHFRDFSGEYWSDVFEHFLAEYAAGRTPNPDVLCNREVKFKHFLDAAQALGAERIATGHYAQVAHRGGRWRLLRGADRGKDQSYFLHQLGQTQLAATLFPIGDLEKSTLRRIAQDAGLPTHAKKDSTGICFIGERDFREFLGRYLPARTGEIRDPQGQRIAEHPGVFYFTLGQREGLNIGGVRGRAAAPWYVVGKDVANNVLYVDQDRDSPLLQSRWLQSEQAHWVTGAPPARRFSCTAQTRYRQPDESCTVDVQDDGSVQVRFERPQRAVTPGQSLVLYDGEECLGGAVIAATDAPLERQLAGSSFSSEVVALEHHHHHH` , soluble on expression in E. coli observed: not soluble

sequence `MGHHHHHHSHMTDPLAPEGDNRVWYMDGYHNNRFVREYKSMVDFMNTDNFTSHRLPHPWSGTGQVVYNGSIYFNKFQSHIIIRFDLKTETILKTRSLDYAGYNNMYHYAWGGHSDIDLMVDESGLWAVYATNQNAGNIVVSRLDPVSLQTLQTWNTSYPKRSAGEAFIICGTLYVTNGYSGGTKVHYAYQTNASTYEYIDIPFQNKYSHISMLDYNPKDRALYAWNNGHQILYNVTLFHVIRSDEL` , soluble on expression in E. coli observed: not soluble

sequence `MAKLDETLTMLKALTDAKGVPGNEREARDVMKTYIAPYADEVTTDGLGSLIAKKEGKSGGPKVMIAGHLDEVGFMVTQIDDKGFIRFQTLGGWWSQVMLAQRVTIVTKKGDITGVIGSKPPHILPSEARKKPVEIKDMFIDIGATSREEAMEWGVRPGDMIVPYFEFTVLNNEKMLLAKAWDNRIGCAVAIDVLKQLKGVDHPNTVYGVGTVQEEVGLRGARTAAQFIQPDIAFAVDVGIAGDTPGVSEKEAMGKLGAGPHIVLYDATMVSHRGLREFVIEVAEELNIPHHFDAMPGVGTDAGAIHLTGIGVPSLTIAIPTRYIHSHAAILHRDDYENTVKLLVEVIKRLDADKVKQLTFDE` , soluble on expression in E. coli observed: not soluble

sequence `MTNNDKNKKIVPEVKGTLRSHMIELPEVIRNATGIRVFGKRLKSFVFSTDVAVIRNTNADAVIAVYPFTPQPVITAAIVLAADVPVFCGVGGGLTMGKRVVNLALDAEFKGAMGVVVNSPTPNDIIREVRETIDIPIIVTVVSEYEDVQARIDSGATILNVSGAKRTSHIVRSIREKFPSIPIIATGGNNEASIIETIEAGANAITYTPPTTGKIFGDTMNSYRKKFE` , soluble on expression in E. coli observed: not soluble

sequence `MSLKKIKRITAYQVDLPLHEGSYNWSGGKTVNIFDSTIVAIETDDGLIGYGECCPLGPFYLPSYAEGVRAGIKELGPHLIGLDATDHSYINMVMDQCLKGHPYVKSPIDIACWDIKGKAANMPISKLLGGTYDEDFVLYRAISQNEPDAMASNVKKYRDEGYRRFQLKVGGSPNEDIERIRSVASKLEDGDKLIADANTGWLAHEALRVIRAVNDIDVYIEQPCQSYEECLSVRQKTTHPFILDESVKNIGVLVRGYHDKAMDAVNIKISKFGGITKAVLARDLCTELGIAMTIEDSWGGDIVTATIAHLAHSTQPKLLFTATDFNSYVTVHIADGAPQRNNGRMKSSGEGHHHHHH` , soluble on expression in E. coli observed: not soluble
